protocol text: Pharmacokinetics in plasma after single- and multiple-dose administration
Assay type: in vivo, human
assay context: human, plasma, oral, 600 mg, Single-dose administration

[
  {
    "smiles input": "Cc1ccc(C(=O)Nc2ccc(CN3CCN(C)CC3)c(C(F)(F)F)c2)cc1C#Cc1nnc2ccccn12",
    "unit name": "h",
    "Tmax": 4.65
  }
]

----------
protocol text: Pharmacokinetics in plasma after single- and multiple-dose administration
Type: in vivo, human
assay context: human, plasma, oral, 750 mg, Single-dose administration

[
  {
    "molecule": "Cc1ccc(C(=O)Nc2ccc(CN3CCN(C)CC3)c(C(F)(F)F)c2)cc1C#Cc1nnc2ccccn12 [vamotinib]",
    "Cmax / ng/mL": 225
  }
]

----------
protocol text: Pharmacokinetics in plasma after single- and multiple-dose administration
Type: in vivo, human
assay context: human, plasma, oral, 400 mg, Single-dose administration, 400 mg; read-out: AUC0-t, Mean
observable: AUC(0-t)

[
  {
    "smiles input": "Cc1ccc(C(=O)Nc2ccc(CN3CCN(C)CC3)c(C(F)(F)F)c2)cc1C#Cc1nnc2ccccn12",
    "recorded value": "1740 ng·h/mL"
  }
]

----------
protocol text: Pharmacokinetics in plasma after single- and multiple-dose administration
Type: in vivo, human
assay context: human, plasma, oral, 400 mg, Multiple-dose administration, 400 mg; read-out: AUC0-24, Mean
Description: Blood samples were obtained to evaluate pharmacokinetics and pharmacodynamics (Tables S1, S1.1, S1.2). Data on phosphorylated CrkL protein (pCrkL) concentration were evaluated in samples from 4 subjects. Pharmacokinetic measurements were done on days 1 and 29–30 of treatment. […] PF-114 was determined in human plasma samples using validated analytical method. […] The PK concentration set (PK-C): This set includes all treated subjects who have at least 1 measured concentration. […]
observable: AUC(0-t)

[
  {
    "compound": "Cc1ccc(C(=O)Nc2ccc(CN3CCN(C)CC3)c(C(F)(F)F)c2)cc1C#Cc1nnc2ccccn12 [vamotinib]",
    "recorded value": "2710 ng·h/mL"
  }
]

----------
protocol text: Pharmacokinetics in plasma after single- and multiple-dose administration
Type: in vivo, human
assay context: human, plasma, oral, 300 mg, Multiple-dose administration
Procedure: Blood samples were obtained to evaluate pharmacokinetics and pharmacodynamics (Tables S1, S1.1, S1.2). Data on phosphorylated CrkL protein (pCrkL) concentration were evaluated in samples from 4 subjects. Pharmacokinetic measurements were done on days 1 and 29–30 of treatment. […] PF-114 was determined in human plasma samples using validated analytical method. […] The PK concentration set (PK-C): This set includes all treated subjects who have at least 1 measured concentration. […]
observable: Cmax (ng/mL)

[
  {
    "smiles input": "Cc1ccc(C(=O)Nc2ccc(CN3CCN(C)CC3)c(C(F)(F)F)c2)cc1C#Cc1nnc2ccccn12",
    "unit name": "ng/mL",
    "recorded value": 148
  }
]

----------
protocol text: Pharmacokinetics in plasma after single- and multiple-dose administration
Assay type: in vivo, human
assay context: human, plasma, oral, 50 mg, Multiple-dose administration

[
  {
    "smiles input": "Cc1ccc(C(=O)Nc2ccc(CN3CCN(C)CC3)c(C(F)(F)F)c2)cc1C#Cc1nnc2ccccn12",
    "Tmax, h": 1.9
  }
]

----------
protocol text: Pharmacokinetics in plasma after single- and multiple-dose administration
Assay type: in vivo, human
assay context: human, plasma, oral, 300 mg, Single-dose administration
observable: Tmax (h)

[
  {
    "smiles input": "Cc1ccc(C(=O)Nc2ccc(CN3CCN(C)CC3)c(C(F)(F)F)c2)cc1C#Cc1nnc2ccccn12",
    "recorded value": 3.58
  }
]
